experiment: Selectivity index, ratio of CC50 for BHK21 cells to IC50 for Candida albicans ATCC 10231; assay type: toxicity; conditions: hamster, read-out: Ratio CC50/IC50
We begin with a simple list: items and their reported selectivity ratio.
Answer with a number only.

COc1cc(/C=C/C(=O)N2CCC=CC2=O)cc(OC)c1OC = 0.42

// next item, selectivity ratio requested
Which selectivity ratio is listed for `O=C(/C=C/c1ccccc1)NNC(=O)c1ccccc1` ?
0.61

* * *

We begin with a simple list: items and their reported selectivity ratio.
test: Selectivity index, ratio of CC50 for BHK21 cells to IC50 for Staphylococcus aureus ATCC 6538; type: toxicity; conditions: hamster, read-out: Ratio CC50/IC50
Answer with a number only.

COc1cc(/C=C/C(=O)N2CCC=CC2=O)cc(OC)c1OC = 0.12

// next item, selectivity ratio requested
Which selectivity ratio is listed for `O=C(/C=C/c1ccccc1)NNC(=O)c1ccccc1` ?
2.71

* * *

assay: Selectivity index, ratio of CC50 for BHK21 cells to IC50 for Candida krusei ATCC 6258; type: toxicity; conditions: hamster, read-out: Ratio CC50/IC50
We begin with a simple list: items and their reported selectivity ratio.
Answer with a number only.

COc1cc(/C=C/C(=O)N2CCOCC2)cc(OC)c1OC = 3.79

// next item, selectivity ratio requested
Which selectivity ratio is listed for `COc1cc(/C=C/C(=O)N2CCC=CC2=O)cc(OC)c1OC` ?
0.21

* * *

molecular target: Sodium-dependent serotonin transporter (Homo sapiens); test: Displacement of [3H]Imipramine from human 5-HT transporter expressed in HEK-293 cell membranes after 30 mins
Sequence (P31645 whole entry): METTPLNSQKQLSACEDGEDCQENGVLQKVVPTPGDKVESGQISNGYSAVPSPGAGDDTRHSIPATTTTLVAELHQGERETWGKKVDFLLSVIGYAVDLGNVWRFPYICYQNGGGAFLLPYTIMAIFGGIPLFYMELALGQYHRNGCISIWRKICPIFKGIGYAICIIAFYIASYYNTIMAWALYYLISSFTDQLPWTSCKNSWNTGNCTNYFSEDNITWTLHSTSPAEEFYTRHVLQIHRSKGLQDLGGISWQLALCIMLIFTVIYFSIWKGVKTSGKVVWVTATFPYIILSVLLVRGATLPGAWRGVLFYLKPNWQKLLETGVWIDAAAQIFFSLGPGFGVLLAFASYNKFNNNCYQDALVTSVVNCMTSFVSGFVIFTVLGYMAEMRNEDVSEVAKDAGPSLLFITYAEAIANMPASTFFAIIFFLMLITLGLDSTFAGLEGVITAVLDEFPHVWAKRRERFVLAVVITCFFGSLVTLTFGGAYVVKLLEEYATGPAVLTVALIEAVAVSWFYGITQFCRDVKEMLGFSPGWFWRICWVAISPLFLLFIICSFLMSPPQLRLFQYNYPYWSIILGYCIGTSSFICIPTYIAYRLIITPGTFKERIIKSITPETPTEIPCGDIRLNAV
measurement_kind: IC50

CCCCCCCCNC(=O)/C=C/c1cc(OC)c(OC)c(OC)c1 = > 10 µM

Which IC50 is listed for COc1cc(/C=C/C(=O)O)cc(OC)c1OC [SINAPIC ACID METHYL ETHER] ?
> 10 µM

// same read-out, input: `CCCCCCCCCCNC(=O)/C=C/c1cc(OC)c(OC)c(OC)c1`
6.7 µM

* * *

test system: Candida tropicalis; assay: Antifungal activity against Candida tropicalis ATCC 750 after 24 hrs by CLSI broth microdilution method; format: functional, organism-based; details: ATCC 750, 24 h
measurement_kind: pIC50
Remember, pIC50 is on a log scale: it is -log10 of the molar concentration.

COc1cc(/C=C/C(=O)N2CCOCC2)cc(OC)c1OC = 4.01

Form field - read-out: pIC50; system: Candida tropicalis; submitted item: `O=C(/C=C/c1ccccc1)NNC(=O)c1ccccc1`
3.43

* * *

We begin with a simple list: items and their reported selectivity ratio.
experiment: Selectivity index, ratio of CC50 for BHK21 cells to IC50 for Candida tropicalis ATCC 750; type: toxicity; details: hamster, read-out: Ratio CC50/IC50
Answer with a number only.

COc1cc(/C=C/C(=O)N2CCOCC2)cc(OC)c1OC = 1.89

// next item, selectivity ratio requested
Which selectivity ratio is listed for `O=C(/C=C/c1ccccc1)NNC(=O)c1ccccc1` ?
0.61

* * *

Molecular target: Bifunctional epoxide hydrolase 2 (Homo sapiens)
Sequence (P34913 whole entry): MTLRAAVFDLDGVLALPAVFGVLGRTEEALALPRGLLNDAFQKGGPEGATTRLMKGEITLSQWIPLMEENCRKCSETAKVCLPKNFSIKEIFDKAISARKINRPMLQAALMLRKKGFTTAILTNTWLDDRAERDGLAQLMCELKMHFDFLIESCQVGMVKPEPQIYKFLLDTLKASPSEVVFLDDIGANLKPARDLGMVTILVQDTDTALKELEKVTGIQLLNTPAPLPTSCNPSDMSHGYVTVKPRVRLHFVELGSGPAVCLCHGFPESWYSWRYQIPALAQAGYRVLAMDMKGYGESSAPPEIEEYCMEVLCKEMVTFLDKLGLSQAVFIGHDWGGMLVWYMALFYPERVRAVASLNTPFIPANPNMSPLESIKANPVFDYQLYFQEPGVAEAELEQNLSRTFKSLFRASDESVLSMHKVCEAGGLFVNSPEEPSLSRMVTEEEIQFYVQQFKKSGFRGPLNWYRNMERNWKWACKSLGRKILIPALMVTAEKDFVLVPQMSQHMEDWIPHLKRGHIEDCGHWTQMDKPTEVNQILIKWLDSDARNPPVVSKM
Test: Competitive inhibition of soluble epoxide hydrolase (unknown origin)
We begin with a simple list: items and their reported pIC50.
Remember, pIC50 is on a log scale: it is -log10 of the molar concentration.

COc1ccc(C(=O)OC[C@H]2O[C@H](O[C@]3(CO)O[C@H](CO)[C@@H](O)[C@@H]3OC(=O)/C=C/c3cc(OC)c(OC)c(OC)c3)[C@H](O)[C@@H](O)[C@@H]2O)cc1 = 5.19

Which pIC50 is listed for `COc1cc(/C=C/C(=O)OC[C@H]2O[C@H](O[C@@]3(CO)O[C@H](CO)[C@@H](O)[C@@H]3OC(=O)/C=C/c3cc(OC)c(OC)c(OC)c3)[C@H](O)[C@@H](O)[C@@H]2O)cc(OC)c1O` ?
4.57

// same read-out, input: `COc1cc(/C=C/C(=O)O[C@H]2[C@H](O)[C@@H](CO)O[C@@]2(CO)O[C@H]2O[C@H](COC(=O)c3ccc(O)cc3)[C@@H](O)[C@H](O)[C@H]2O)cc(OC)c1OC`
5.04

// same read-out, input: `COc1cc(/C=C/C(=O)O[C@H]2[C@H](O)[C@@H](CO)O[C@]2(CO)O[C@H]2O[C@H](CO)[C@@H](OC(=O)c3ccccc3)[C@H](O)[C@H]2O)cc(OC)c1OC`
4.74
